Values from paper PMC7205207

Target: T1, human PDGF-BB (platelet derived growth factor B homodimer) (human, UniProt P01127)
T1 construct: Platelet derived growth factor B, human, homodimer, bought from PeproTech; the printed catalogue number may stand for 100-14B; source: bought: PeproTech, Catalog 100-148
T1 sequence (P01127 82-190): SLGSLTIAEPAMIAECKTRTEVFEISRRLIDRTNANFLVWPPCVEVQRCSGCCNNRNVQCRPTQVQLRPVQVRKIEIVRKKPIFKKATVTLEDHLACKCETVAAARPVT
Experiment: SPR; Biacore T200, off-rate screen; antibody captured (~70 to 100 RU) by anti-human IgG amine-coupled to a CM5 chip; human PDGF-BB injected at a single 2.5 nM for 170 s, dissociation 300 s; HBS-EP+ N (10 mM HEPES, 500 mM NaCl, 3 mM EDTA, 0.05% Tween20, pH 7.4); 25 C
Details: both partners purified
Measured quantity: koff (s⁻¹)
# value in s⁻¹; strip the unit string

## Input So what's the measured koff for this one? R2-009 (antibody, V domains shown, as the VH of m20 (R2-001_HC); as the VL of m20 (R2-001_LC) with G68K (Kabat); only the variable regions are written; source: HEK293, transient, purified from conditioned medium (protein A, TMAE, HIC)) VH: EVQLLQSGGGLVKPGGSLRLSCAASGFTFSSYAMSWVRQAPGKGLEWVSYISDDGSLKYYADSVKGRFTISRDNSKNTLYLQMNSLRAEDTAVYYCARHPYWYGGQLDLWGQGTLVTVSS VL: SYVLTQPPSVSVAPGKTARITCSGDSLGSYFVHWYQQKPGQSPVLVIYDDSKRPSGIPERFSGSNSKNTATLTISGTQAMDEADYYCSAFTHNSDVFGGGTKLTVL
## Output 0.000265
